System: K. pneumoniae ATCC 10031 (SEN) and K. pneumoniae ATCC 700603 (MDR)
Assay: Adaptive laboratory evolution (ALE), relative MIC of evolved lines
Format: cell-based, Klebsiella pneumoniae
Conditions: Klebsiella pneumoniae ATCC 700603 (KP-MDR), evolved line 5
Consider the following compounds and their measured Relative MIC readings.
Respond using a number only.

compound	Relative MIC
CN[C@@H]1[C@@H](O[C@H]2O[C@H](CO)[C@@H](N)[C@H](O)[C@H]2O)OC2C[C@@H](N)[C@@H](O[C@H]3[C@H](O)[C@@H](O)[C@H](N)C[C@@H]3N)OC2[C@@H]1O (stereo partly drawn)	16

Asked: Find the measured Relative MIC of `Nc1nc(-n2cc(C(=O)O)c(=O)c3cc(F)c(N4CC(O)C4)c(Cl)c32)c(F)cc1F` and report it.
Given back: 32

Asked: Find the measured Relative MIC of `C[C@@H](O)[C@H]1C(=O)N2C(C(=O)O)=C(S[C@H]3CC[S@@+]([O-])C3)S[C@H]12` and report it.
Given back: 256

---

Consider the following molecules and their measured MIC of ancestor readings.
Test system: A. baumannii ATCC 17978 (SEN) and A. baumannii ATCC BAA-1605 (MDR)
Assay: microbe, parasite or virus in culture
Type: cell-based, Acinetobacter baumannii
Details: Acinetobacter baumannii ATCC 17978 (AB-SEN), ancestor strain; sheet fig 2a
// units = µg/mL; emit number, no label

Check out these entries, answers already filled in.
> print(dat)
                                   molecule  reported
1  CN(C)[C@@H]1C(O)=C(C(N)=O)C(=O)[C@@]2(O)C(O)=C3C(=O)c4c(O)c(NC(=O)CN5CCCC5)cc(F)c4C[C@H]3C[C@@H]12 [Eravacycline]    0.0625
2  Nc1nc(-n2cc(C(=O)O)c(=O)c3cc(F)c(N4CC(O)C4)c(Cl)c32)c(F)cc1F [Delafloxacin]    0.0625

Below: the item to evaluate.
Asked: Enter MIC of ancestor (test system A. baumannii ATCC 17978 (SEN) and A. baumannii ATCC BAA-1605 (MDR)) for CC(C)c1ccc(Cn2ccc3c4c(N)nc(NC5CC5)nc4ccc32)cc1 [SCH79797]
Given back: 4

---

Tested on: E. coli ATCC 25922 (SEN) and E. coli NCTC13846 (MDR)
Test: Adaptive laboratory evolution (ALE), relative MIC of evolved lines
Format: cell-based, Escherichia coli
Conditions: Escherichia coli ATCC 25922 (EC-SEN), evolved line 2
assay.endpoint: Relative MIC
Respond using a number only.

> print(dat)
                                   compound  reported
1  C[C@H]1c2cccc(O)c2C(=O)C2=C(O)[C@]3(O)C(=O)C(C(N)=O)=C(O)[C@@H](N(C)C)[C@@H]3[C@@H](O)[C@@H]21 [Doxycycline]        16
2  Nc1nc(-n2cc(C(=O)O)c(=O)c3cc(F)c(N4CC(O)C4)c(Cl)c32)c(F)cc1F [Delafloxacin]      1024

Asked: Find the measured Relative MIC of CN(C)[C@@H]1C(O)=C(C(N)=O)C(=O)[C@@]2(O)C(O)=C3C(=O)c4c(O)c(NC(=O)CN5CCCC5)cc(F)c4C[C@H]3C[C@@H]12 [Eravacycline] and report it.
Given back: 16

---

System: K. pneumoniae ATCC 10031 (SEN) and K. pneumoniae ATCC 700603 (MDR)
Assay: Adaptive laboratory evolution (ALE), relative MIC of evolved lines
Type: cell-based, Klebsiella pneumoniae
Settings: Klebsiella pneumoniae ATCC 700603 (KP-MDR), evolved line 9
Where a SMILES comes first, the peptide text is derived from it. Bridges are numbered along the chain shown (N, C = ends). [ ]: non-standard residue; d: D form. The star is where a group is joined. X1 = NC[C@@H](CC(=O)*)c1cccc(Cl)c1; Dab = NCC[C@H](N)C(=O)O; Dap = NC[C@H](N)C(=O)O
Threshold-based label: Relative MIC under 300 gives Fulfilled, Relative MIC not under 300 gives Not fulfilled.

molecule	qualitative.label
CN(C)[C@@H]1C(O)=C(C(N)=O)C(=O)[C@@]2(O)C(O)=C3C(=O)c4c(O)c(NC(=O)CN5CCCC5)cc(F)c4C[C@H]3C[C@@H]12	Fulfilled
C[C@@H](O)[C@H]1C(=O)N2C(C(=O)O)=C(S[C@H]3CC[S@@+]([O-])C3)S[C@H]12	Fulfilled
Nc1nc(-n2cc(C(=O)O)c(=O)c3cc(F)c(N4CC(O)C4)c(Cl)c32)c(F)cc1F	Fulfilled
CN[C@@H]1[C@@H](O[C@H]2O[C@H](CO)[C@@H](N)[C@H](O)[C@H]2O)OC2C[C@@H](N)[C@@H](O[C@H]3[C@H](O)[C@@H](O)[C@H](N)C[C@@H]3N)OC2[C@@H]1O (some centres unmarked)	Fulfilled

Asked: Lab note: confirm whether the reported Relative MIC for this molecule is below 300, equality not counting. molecule: CC(C)C[C@@H]1NC(=O)[C@@H](Cc2ccccc2)NC(=O)[C@H](CCN)NC(=O)[C@@H](NC(=O)[C@H](CN)NC(=O)[C@@H](NC(=O)C[C@H](CN)c2cccc(Cl)c2)[C@@H](C)O)CCNC(=O)[C@H]([C@@H](C)O)NC(=O)[C@H](CCN)NC(=O)[C@H](CCN)NC1=O [SPR206] (X1-T[Dap][Dab][Dab][dF]L[Dab][Dab]T; lactam 3-C (inferred); N-terminus assumed)
Given back: Not fulfilled

---

System: P. aeruginosa ATCC BAA-3107 (SEN) and P. aeruginosa LESB58 (MDR)
Assay: microbe, parasite or virus in culture
Format: cell-based, Pseudomonas aeruginosa
Conditions: PA-SEN, Pseudomonas aeruginosa ATCC BAA 3107, ancestor strain
Consider the following compounds and their measured MIC of ancestor readings.
// units = µg/mL; emit number, no label

Check out these entries, answers already filled in.
> print(dat)
                                   compound  reported
1  CN(C)[C@@H]1C(O)=C(C(N)=O)C(=O)[C@@]2(O)C(O)=C3C(=O)c4c(O)c(NC(=O)CN5CCCC5)cc(F)c4C[C@H]3C[C@@H]12         4
2  CNC(C)C1CCC(N)C(OC2C(N)CC(N)C(OC3OCC(C)(O)C(NC)C3O)C2O)O1 (stereo not shown)         1
3  O=c1ccc2ncc(=O)n3c2n1C[C@H]3CN1CCC(NCc2cc3c(cn2)OCCC3)CC1         4

Below: the item to evaluate.
Asked: Find the measured MIC of ancestor of `C[C@@H](O)[C@H]1C(=O)N2C(C(=O)O)=C(S[C@@H]3CN[C@H](C(=O)N(C)C)C3)[C@H](C)[C@H]12` and report it.
Given back: 0.0312

---

Tested on: K. pneumoniae ATCC 10031 (SEN) and K. pneumoniae ATCC 700603 (MDR)
Assay: Adaptive laboratory evolution (ALE), relative MIC of evolved lines
Type: cell-based, Klebsiella pneumoniae
Details: Klebsiella pneumoniae ATCC 700603 (KP-MDR), evolved line 5
Where a SMILES comes first, the peptide text is derived from it. Bridges are numbered along the chain shown (N, C = ends). [ ]: non-standard residue; d: D form. The star is where a group is joined. X1 = NC[C@@H](CC(=O)*)c1cccc(Cl)c1; Dab = NCC[C@H](N)C(=O)O; Dap = NC[C@H](N)C(=O)O
assay.endpoint: Relative MIC
Respond using a number only.

compound	Relative MIC
CN(C)[C@@H]1C(O)=C(C(N)=O)C(=O)[C@@]2(O)C(O)=C3C(=O)c4c(O)c(NC(=O)CN5CCCC5)cc(F)c4C[C@H]3C[C@@H]12 [Eravacycline]	8

Below: the item to evaluate.
Asked: Enter Relative MIC (test system K. pneumoniae ATCC 10031 (SEN) and K. pneumoniae ATCC 700603 (MDR)) for CC(C)C[C@@H]1NC(=O)[C@@H](Cc2ccccc2)NC(=O)[C@H](CCN)NC(=O)[C@@H](NC(=O)[C@H](CN)NC(=O)[C@@H](NC(=O)C[C@H](CN)c2cccc(Cl)c2)[C@@H](C)O)CCNC(=O)[C@H]([C@@H](C)O)NC(=O)[C@H](CCN)NC(=O)[C@H](CCN)NC1=O [SPR206] (X1-T[Dap][Dab][Dab][dF]L[Dab][Dab]T; lactam 3-C (inferred); N-terminus assumed)
Given back: 256

---

Tested on: E. coli ATCC 25922 (SEN) and E. coli NCTC13846 (MDR)
Assay: microbe, parasite or virus in culture
Type: cell-based, Escherichia coli
Details: E. coli NCTC 13846 (EC-MDR), ancestor strain; sheet fig 2a
Where a SMILES comes first, the peptide text is derived from it. Bridges are numbered along the chain shown (N, C = ends). [ ]: non-standard residue; d: D form. The star is where a group is joined. X1 = NC[C@@H](CC(=O)*)c1cccc(Cl)c1; Dab = NCC[C@H](N)C(=O)O; Dap = NC[C@H](N)C(=O)O
assay.endpoint: log10(MIC of ancestor) (log10 of the value in µg/mL)
# values: log10(MIC of ancestor), units µg/mL

compound	log10(MIC of ancestor)
CN(C)[C@@H]1C(O)=C(C(N)=O)C(=O)[C@@]2(O)C(O)=C3C(=O)c4c(O)c(NC(=O)CN5CCCC5)cc(F)c4C[C@H]3C[C@@H]12 [Eravacycline]	0.00
C[C@@H](O)[C@H]1C(=O)N2C(C(=O)O)=C(S[C@H]3CC[S@@+]([O-])C3)S[C@H]12 [Sulopenem]	-1.51
O=c1ccc2ncc(=O)n3c2n1C[C@H]3CN1CCC(NCc2cc3c(cn2)OCCC3)CC1 [Gepotidacin]	0.30
C[C@@H](O)[C@H]1C(=O)N2C(C(=O)O)=C(S[C@@H]3CN[C@H](C(=O)N(C)C)C3)[C@H](C)[C@H]12 [Meropenem]	-1.81

Asked: Find the measured log10(MIC of ancestor) of CNC(C)C1CCC(N)C(OC2C(N)CC(N)C(OC3OCC(C)(O)C(NC)C3O)C2O)O1 (stereo not drawn) [Gentamicin] and report it.
Given back: 0.00

Asked: Find the measured log10(MIC of ancestor) of CC(C)C[C@@H]1NC(=O)[C@@H](Cc2ccccc2)NC(=O)[C@H](CCN)NC(=O)[C@@H](NC(=O)[C@H](CN)NC(=O)[C@@H](NC(=O)C[C@H](CN)c2cccc(Cl)c2)[C@@H](C)O)CCNC(=O)[C@H]([C@@H](C)O)NC(=O)[C@H](CCN)NC(=O)[C@H](CCN)NC1=O [SPR206] (X1-T[Dap][Dab][Dab][dF]L[Dab][Dab]T; lactam 3-C (inferred); N-terminus assumed) and report it.
Given back: 0.60
